Reported half-life values follow for various compounds
- testSummary: Half life administered intravenously in rats.
- Assay type: ADME, organism-based
- conditions: rat, in vivo, iv
Bridge positions count the residues as written; N and C are the ends. Square brackets hold non-standard residues; d marks the D form. Peptide text beside a SMILES is read from it. * marks the point of attachment. X2 = CC(=O)OC[C@@H]1O[C@@H](*)[C@@H](OC(C)=O)[C@@H](OC(C)=O)[C@H]1OC(C)=O; X1 = OC[C@@H]1O[C@@H](*)[C@@H](O)[C@@H](O)[C@H]1O; Mpa = O=C(O)CCS
Give the value in min but do not write min after it.

- NC(=O)CNC(=O)[C@@H](CCCN=C(N)N)NC(=O)[C@@H]1CCCN1C(=O)[C@@H]1CSSCCC(=O)N[C@H](Cc2ccc(O)cc2)C(=O)N[C@@H](Cc2ccccc2)C(=O)N[C@@H](CO)C(=O)N[C@@H](CC(N)=O)C(=O)N1: 32

Just so you know, measured half-life for NC(=O)CNC(=O)[C@H](CCCN=C(N)N)NC(=O)[C@@H]1CCCN1C(=O)[C@@H]1CSSCCC(=O)N[C@@H](Cc2ccc(O)cc2)C(=O)N[C@@H](Cc2ccccc2)C(=O)N[C@@H](CO[C@@H]2O[C@@H](CO)[C@H](O)[C@H](O)[C@@H]2O)C(=O)N[C@@H](CC(N)=O)C(=O)N1 ([Mpa]YFS(X1)NCPRG-NH2; disulfide 1-6) came out at 20

half-life measured on NC(=O)CC[C@@H]1NC(=O)[C@H](Cc2ccccc2)NC(=O)[C@H](Cc2ccc(O)cc2)NC(=O)CCSSC[C@@H](C(=O)N2CCC[C@H]2C(=O)N[C@H](CCCN=C(N)N)C(=O)NCC(N)=O)NC(=O)[C@H](CC(N)=O)NC1=O = 39

Value of measured half-life for the entry CC(=O)OC[C@@H]1O[C@@H](OC[C@@H]2NC(=O)[C@H](Cc3ccccc3)NC(=O)[C@H](Cc3ccc(O)cc3)NC(=O)CCSSC[C@@H](C(=O)N3CCC[C@H]3C(=O)N[C@@H](CCCN=C(N)N)C(=O)NCC(N)=O)NC(=O)[C@H](CC(N)=O)NC2=O)[C@@H](OC(C)=O)[C@@H](OC(C)=O)[C@H]1OC(C)=O ([Mpa]YFS(X2)NCPRG-NH2; disulfide 1-6) : 35

---

- testSummary: Bioavailability in rat administered i.d.
- Assay type: ADME, organism-based
- conditions: in vivo
Bridge positions count the residues as written; N and C are the ends. Square brackets hold non-standard residues; d marks the D form. Peptide text beside a SMILES is read from it. * marks the point of attachment. X2 = CC(=O)OC[C@@H]1O[C@@H](*)[C@@H](OC(C)=O)[C@@H](OC(C)=O)[C@H]1OC(C)=O; X1 = OC[C@@H]1O[C@@H](*)[C@@H](O)[C@@H](O)[C@H]1O; Mpa = O=C(O)CCS
readoutKind: bioavailability (%)
Just the number please, in %, no unit attached.

* NC(=O)CNC(=O)[C@@H](CCCN=C(N)N)NC(=O)[C@@H]1CCCN1C(=O)[C@@H]1CSSCCC(=O)N[C@H](Cc2ccc(O)cc2)C(=O)N[C@@H](Cc2ccccc2)C(=O)N[C@@H](CO)C(=O)N[C@@H](CC(N)=O)C(=O)N1 | 0.5

For record CC(=O)OC[C@@H]1O[C@@H](OC[C@@H]2NC(=O)[C@H](Cc3ccccc3)NC(=O)[C@H](Cc3ccc(O)cc3)NC(=O)CCSSC[C@@H](C(=O)N3CCC[C@H]3C(=O)N[C@@H](CCCN=C(N)N)C(=O)NCC(N)=O)NC(=O)[C@H](CC(N)=O)NC2=O)[C@@H](OC(C)=O)[C@@H](OC(C)=O)[C@H]1OC(C)=O ([Mpa]YFS(X2)NCPRG-NH2; disulfide 1-6) the listed bioavailability is 2.1

Item: NC(=O)CC[C@@H]1NC(=O)[C@H](Cc2ccccc2)NC(=O)[C@H](Cc2ccc(O)cc2)NC(=O)CCSSC[C@@H](C(=O)N2CCC[C@H]2C(=O)N[C@H](CCCN=C(N)N)C(=O)NCC(N)=O)NC(=O)[C@H](CC(N)=O)NC1=O | bioavailability: 0.1

Item: NC(=O)CNC(=O)[C@H](CCCN=C(N)N)NC(=O)[C@@H]1CCCN1C(=O)[C@@H]1CSSCCC(=O)N[C@@H](Cc2ccc(O)cc2)C(=O)N[C@@H](Cc2ccccc2)C(=O)N[C@@H](CO[C@@H]2O[C@@H](CO)[C@H](O)[C@H](O)[C@@H]2O)C(=O)N[C@@H](CC(N)=O)C(=O)N1 ([Mpa]YFS(X1)NCPRG-NH2; disulfide 1-6) | bioavailability: 1.6

---

# maps each entry to its Ratio
- testSummary: Relative transport rate as the ratio of transport rate to that of PEG 4000.
- Format: ADME
Bridge positions count the residues as written; N and C are the ends. Square brackets hold non-standard residues; d marks the D form. Peptide text beside a SMILES is read from it. * marks the point of attachment. X2 = CC(=O)OC[C@@H]1O[C@@H](*)[C@@H](OC(C)=O)[C@@H](OC(C)=O)[C@H]1OC(C)=O; X1 = OC[C@@H]1O[C@@H](*)[C@@H](O)[C@@H](O)[C@H]1O; Mpa = O=C(O)CCS
No unit in the answer, please; the number alone is enough.

// below: answered compounds
* CC(=O)OC[C@@H]1O[C@@H](OC[C@@H]2NC(=O)[C@H](Cc3ccccc3)NC(=O)[C@H](Cc3ccc(O)cc3)NC(=O)CCSSC[C@@H](C(=O)N3CCC[C@H]3C(=O)N[C@@H](CCCN=C(N)N)C(=O)NCC(N)=O)NC(=O)[C@H](CC(N)=O)NC2=O)[C@@H](OC(C)=O)[C@@H](OC(C)=O)[C@H]1OC(C)=O ([Mpa]YFS(X2)NCPRG-NH2; disulfide 1-6) | 2.83
* NC(=O)CC[C@@H]1NC(=O)[C@H](Cc2ccccc2)NC(=O)[C@H](Cc2ccc(O)cc2)NC(=O)CCSSC[C@@H](C(=O)N2CCC[C@H]2C(=O)N[C@H](CCCN=C(N)N)C(=O)NCC(N)=O)NC(=O)[C@H](CC(N)=O)NC1=O | 1.57
* NC(=O)CNC(=O)[C@H](CCCN=C(N)N)NC(=O)[C@@H]1CCCN1C(=O)[C@@H]1CSSCCC(=O)N[C@@H](Cc2ccc(O)cc2)C(=O)N[C@@H](Cc2ccccc2)C(=O)N[C@@H](CO[C@@H]2O[C@@H](CO)[C@H](O)[C@H](O)[C@@H]2O)C(=O)N[C@@H](CC(N)=O)C(=O)N1 ([Mpa]YFS(X1)NCPRG-NH2; disulfide 1-6) | 2.56

# Ratio of NC(=O)CNC(=O)[C@@H](CCCN=C(N)N)NC(=O)[C@@H]1CCCN1C(=O)[C@@H]1CSSCCC(=O)N[C@H](Cc2ccc(O)cc2)C(=O)N[C@@H](Cc2ccccc2)C(=O)N[C@@H](CO)C(=O)N[C@@H](CC(N)=O)C(=O)N1 = 1.66

---

- testSummary: Cmax value administered intraintestinal in rats.
- Format: ADME, organism-based
- conditions: rat, in vivo
Bridge positions count the residues as written; N and C are the ends. Square brackets hold non-standard residues; d marks the D form. Peptide text beside a SMILES is read from it. * marks the point of attachment. X2 = CC(=O)OC[C@@H]1O[C@@H](*)[C@@H](OC(C)=O)[C@@H](OC(C)=O)[C@H]1OC(C)=O; X1 = OC[C@@H]1O[C@@H](*)[C@@H](O)[C@@H](O)[C@H]1O; Mpa = O=C(O)CCS
readoutKind: Cmax (ng/mL)
Just the number in ng/mL, nothing appended.

Solved entries:
- NC(=O)CNC(=O)[C@@H](CCCN=C(N)N)NC(=O)[C@@H]1CCCN1C(=O)[C@@H]1CSSCCC(=O)N[C@H](Cc2ccc(O)cc2)C(=O)N[C@@H](Cc2ccccc2)C(=O)N[C@@H](CO)C(=O)N[C@@H](CC(N)=O)C(=O)N1: 1.4
- CC(=O)OC[C@@H]1O[C@@H](OC[C@@H]2NC(=O)[C@H](Cc3ccccc3)NC(=O)[C@H](Cc3ccc(O)cc3)NC(=O)CCSSC[C@@H](C(=O)N3CCC[C@H]3C(=O)N[C@@H](CCCN=C(N)N)C(=O)NCC(N)=O)NC(=O)[C@H](CC(N)=O)NC2=O)[C@@H](OC(C)=O)[C@@H](OC(C)=O)[C@H]1OC(C)=O ([Mpa]YFS(X2)NCPRG-NH2; disulfide 1-6): 3.6
- NC(=O)CC[C@@H]1NC(=O)[C@H](Cc2ccccc2)NC(=O)[C@H](Cc2ccc(O)cc2)NC(=O)CCSSC[C@@H](C(=O)N2CCC[C@H]2C(=O)N[C@H](CCCN=C(N)N)C(=O)NCC(N)=O)NC(=O)[C@H](CC(N)=O)NC1=O: 0.8

Next item in the queue.
Entry NC(=O)CNC(=O)[C@H](CCCN=C(N)N)NC(=O)[C@@H]1CCCN1C(=O)[C@@H]1CSSCCC(=O)N[C@@H](Cc2ccc(O)cc2)C(=O)N[C@@H](Cc2ccccc2)C(=O)N[C@@H](CO[C@@H]2O[C@@H](CO)[C@H](O)[C@H](O)[C@@H]2O)C(=O)N[C@@H](CC(N)=O)C(=O)N1 ([Mpa]YFS(X1)NCPRG-NH2; disulfide 1-6) ; Cmax = 2.5

Source listed as ChEMBL document CHEMBL1128574.
